Data provenance: patent US20220048967A1

biological target: human GLP-1 receptor (human, UniProt P43220 24-463); test: cell-based or functional assay; note: reference of the scale not given here
RECORDED_METRIC: hGLP1R GTPgS % Top (%)
Numeric only. Scale: %

Would you please look over these solved cases?
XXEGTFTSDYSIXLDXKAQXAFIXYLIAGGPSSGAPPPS (D-Tyr1, Aib2, αMeL13, Orn16, K17 conjugated to (2-[2-(2-Amino-ethoxy)-ethoxy]-acetyl)2-(γ-Glu)-CO-(CH2)16-CO2H, Aib20, D-Glu24, C-terminal amide (NH2)) [Example 363]; 69.6
XXEGTXTSDYSIXLDKKAQXAFIEYLIEGGPSSGAPPPS (not fully specified; D-Tyr1, Aib2, αMeF(2F)6, αMeL13, K17 conjugated to (2-[2-(2-Amino-ethoxy)-ethoxy]-acetyl)2-(γ-Glu)-CO-(CH2)18-CO2H, Aib20, C-terminal amide (NH2)) [Example 336]; 90.2

Prompt: Give the value of hGLP1R GTPgS % Top reported for the following: XXEGTFTSDYSIXLDKKAQXAFIEYLIEGGPSSGAPPPS (not fully specified; D-Tyr1, Aib2, αMeL13, K17 conjugated to (2-[2-(2-Amino-ethoxy)-ethoxy]-acetyl)2-(γ-Glu)-CO-(CH2)18-CO2H, Aib20, C-terminal amide (NH2)) [Example 334]
Response: 70.2

Prompt: Provide one value: measured hGLP1R GTPgS % Top of YXEGTFTSDYSIXLDKKAQXAFIEYLIAGGPSSGAPPPS (Aib2, αMeL13, K17 conjugated to (2-[2-(2-Amino-ethoxy)-ethoxy]-acetyl)2-(γ-Glu)-CO-(CH2)18-CO2H (printed "(CH2)1s"), Aib20, C-terminal amide (NH2)) [Example 324]
Response: 84.5

Prompt: Input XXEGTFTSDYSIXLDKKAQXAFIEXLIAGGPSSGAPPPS (D-Tyr1, Aib2, αMeL13, K17 conjugated to (2-[2-(2-Amino-ethoxy)-ethoxy]-acetyl)2-(γ-Glu)-CO-(CH2)18-CO2H, Aib20, αMeY25, C-terminal amide (NH2)) [Example 365] , output reported hGLP1R GTPgS % Top.
Response: 66.9

Prompt: Give the reported value of hGLP1R GTPgS % Top for this record: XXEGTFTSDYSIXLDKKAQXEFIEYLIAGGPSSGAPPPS (D-Tyr1, Aib2, αMeL13, K17 conjugated to (2-[2-(2-Amino-ethoxy)-ethoxy]-acetyl)-(γ-Glu)-CO-(CH2)18-CO2H, Aib20, C-terminal amide (NH2)) [Example 378]
Response: 68.6
